Assay: Thermodynamic solubility of voruciclib HCl by the shake-flask method (HPLC)
Type: physicochemical
Stated conditions: N,N-dimethylformamide, organic solvent or mixture, thermodynamic from solid, N,N-Dimethylformamide; RT; amorphous API; no suspension obtained, concentration of the solution after first aliquot; read-out: Solubility
Counter-ions that a name gives are not always drawn.
Reported metric: solubility

Ask: Please report the measured solubility for CN1CC[C@@H](c2c(O)cc(O)c3c(=O)cc(-c4ccc(C(F)(F)F)cc4Cl)oc23)[C@@H]1CO [voruciclib HCl]
Result: > 400 mg/mL

----------
Assay: Quantitative solubility determination of voruciclib malonate after the thermocycling experiments (UPLC)
Format: physicochemical
Stated conditions: organic solvent or mixture, thermodynamic from solid, 1,4-dioxane, chloroform, ethyl formate, DCM, ethyl acetate and isopropyl acetate, read-out: Solubility classification
Reported metric: solubility

Ask: Specify solubility for CN1CC[C@H](c2c(O)cc(O)c3c(=O)cc(-c4ccc(C(F)(F)F)cc4Cl)oc23)[C@H]1CO (stereo in doubt) [voruciclib malonate] and stop.
Result: 100 to 1000 µg/mL

----------
Assay: Thermodynamic solubility of voruciclib HCl by the shake-flask method (HPLC)
Format: physicochemical
Stated conditions: methanol, organic solvent or mixture, thermodynamic from solid, Methanol; RT, 24 h, amorphous API, HPLC; read-out: Solubility
Where a name gives a salt, the structure may show the parent alone.
Reported metric: solubility at 24 h

Ask: Consider the molecule CN1CC[C@@H](c2c(O)cc(O)c3c(=O)cc(-c4ccc(C(F)(F)F)cc4Cl)oc23)[C@@H]1CO [voruciclib HCl] . State its measured solubility at 24 h.
Result: 230 mg/mL

----------
Assay: Thermodynamic solubility of voruciclib HCl by the shake-flask method (HPLC)
Format: physicochemical
Stated conditions: ethyl formate, organic solvent or mixture, thermodynamic from solid, Ethyl formate; RT, 24 h, amorphous API, HPLC; read-out: Solubility
Counter-ions that a name gives are not always drawn.
Reported metric: solubility at 24 h (µg/mL)
Just the number in µg/mL, nothing appended.

Ask: // fetch solubility at 24 h given entry CN1CC[C@@H](c2c(O)cc(O)c3c(=O)cc(-c4ccc(C(F)(F)F)cc4Cl)oc23)[C@@H]1CO [voruciclib HCl]
Result: 1600

----------
Assay: Thermodynamic solubility of voruciclib HCl by the shake-flask method (HPLC)
Type: physicochemical
Stated conditions: chloroform, organic solvent or mixture, thermodynamic from solid, Chloroform; RT, 24 h, amorphous API, HPLC; read-out: Solubility
Where a name gives a salt, the structure may show the parent alone.
Reported metric: solubility at 24 h (µg/mL)
Could you give me the number in µg/mL? Just the number is fine.

Ask: Note solubility at 24 h for the compound shown: CN1CC[C@@H](c2c(O)cc(O)c3c(=O)cc(-c4ccc(C(F)(F)F)cc4Cl)oc23)[C@@H]1CO [voruciclib HCl]
Result: 3100

----------
Assay: Approximate solubility assessment of the free base by the solvent (aliquot) addition method
Assay type: physicochemical
Stated conditions: organic solvent or mixture, thermodynamic from solid; Tetrahydrofuran; RT; approximate, solvent addition; read-out: Solubility
Reported metric: solubility

Ask: Please give measured solubility of the following entry: CN1CC[C@@H](c2c(O)cc(O)c3c(=O)cc(-c4ccc(C(F)(F)F)cc4Cl)oc23)[C@@H]1CO [Voruciclib]
Result: 30 to 60 mg/mL

----------
Assay: Physical stability upon exposure to accelerated aging conditions (AAC, 40° C./75% RH), re-analysis by HT-XRPD
Assay type: physicochemical
Stated conditions: solids from evaporated mother liquors of the salt screen; 40° C./75% RH for 2 days; HT-XRPD
Reported metric: Liquid phase AAC (XRPD form after accelerated aging)

Observe how each entry below is paired with its result.
[[record]]
compound = "CN1CC[C@@H](c2c(O)cc(O)c3c(=O)cc(-c4ccc(C(F)(F)F)cc4Cl)oc23)[C@@H]1CO.O=S(=O)(O)O [Sul1]"
result_value = "Sul1"

[[record]]
compound = "CN1CC[C@@H](c2c(O)cc(O)c3c(=O)cc(-c4ccc(C(F)(F)F)cc4Cl)oc23)[C@@H]1CO.O=C(O)c1ccc2ccccc2c1O [Xin1]"
result_value = "Xin1"

[[record]]
compound = "Br.CN1CCC(c2c(O)cc(O)c3c(=O)cc(-c4ccc(C(F)(F)F)cc4Cl)oc23)C1CO (centres unmarked) [HBr1]"
result_value = "HBr2"

[[record]]
compound = "CN1CCC(c2c(O)cc(O)c3c(=O)cc(-c4ccc(C(F)(F)F)cc4Cl)oc23)C1CO.O=C(O)c1ccccc1 (centres unmarked) [Ben1]"
result_value = "Ben3"


--- query ---
Ask: Tell me measured Liquid phase AAC (XRPD form after accelerated aging) for CN1CC[C@@H](c2c(O)cc(O)c3c(=O)cc(-c4ccc(C(F)(F)F)cc4Cl)oc23)[C@@H]1CO.O=C(O)CC(=O)O [Mao1] please.
Result: Mao1

----------
Assay: Approximate solubility assessment of the free base by the solvent (aliquot) addition method
Format: physicochemical
Stated conditions: organic solvent or mixture, thermodynamic from solid; Ethanol; RT; approximate, solvent addition; read-out: Solubility
Reported metric: solubility

Ask: Specify reported solubility for the molecule shown: CN1CC[C@@H](c2c(O)cc(O)c3c(=O)cc(-c4ccc(C(F)(F)F)cc4Cl)oc23)[C@@H]1CO
Result: 14 to 18 mg/mL

----------
Assay: Quantitative solubility determination of voruciclib malonate after the thermocycling experiments (UPLC)
Format: physicochemical
Stated conditions: THF, water and EtOH, water, thermodynamic from solid, THF, water and EtOH, read-out: Solubility classification
Reported metric: solubility

Ask: Answer with the recorded solubility for the compound listed here: CN1CC[C@H](c2c(O)cc(O)c3c(=O)cc(-c4ccc(C(F)(F)F)cc4Cl)oc23)[C@H]1CO (stereo in doubt) [voruciclib malonate]
Result: 10 to 33 mg/mL

----------
Assay: Approximate solubility assessment of the free base by the solvent (aliquot) addition method
Assay type: physicochemical
Stated conditions: thermodynamic from solid; Water; RT; approximate, solvent addition; read-out: Solubility
Reported metric: solubility

Ask: Return reported solubility. Input compound: CN1CC[C@@H](c2c(O)cc(O)c3c(=O)cc(-c4ccc(C(F)(F)F)cc4Cl)oc23)[C@@H]1CO
Result: < 1000 µg/mL

----------
Assay: Solubility of salts in water and in 0.2 M phosphate buffer pH 6 at 37° C. after 4 hours (HPLC-DAD)
Assay type: physicochemical
Stated conditions: water, 37° C., 4 hours, about 1 mg salt in 1 mL
Reported metric: solubility

[[record]]
molecule = "CN1CC[C@@H](c2c(O)cc(O)c3c(=O)cc(-c4ccc(C(F)(F)F)cc4Cl)oc23)[C@@H]1CO.O=C(O)CC(=O)O"
reported_metric = "solubility"
result_value = "(0.9) mg/mL"

[[record]]
molecule = "CN1CC[C@@H](c2c(O)cc(O)c3c(=O)cc(-c4ccc(C(F)(F)F)cc4Cl)oc23)[C@@H]1CO.CN1CC[C@@H](c2c(O)cc(O)c3c(=O)cc(-c4ccc(C(F)(F)F)cc4Cl)oc23)[C@@H]1CO.O.O=C(O)C(=O)O"
reported_metric = "solubility"
result_value = "hazy"

[[record]]
molecule = "CN1CCC(c2c(O)cc(O)c3c(=O)cc(-c4ccc(C(F)(F)F)cc4Cl)oc23)C1CO.O=P(O)(O)O (stereo not drawn)"
reported_metric = "solubility"
result_value = "(0.9) mg/mL"

